Taken from paper PMC8754650.

target: GCN4 DBD WT (Saccharomyces cerevisiae, UniProt P03069 228-281); assay: FP; apparent; FP: PBS (137 mM NaCl, 2.7 mM KCl, 10 mM Na2HPO4, 1.8 mM KH2PO4) pH 7.4, 20 C, 10 nM duplex, 28 ng/ul herring testes DNA competitor; EMSA per cited ref with competitor DNA; details: protein: recombinant; tags: MBP; chain copies: 2; label: rhodamine 5' of strand 1; 5' overhang 1 nt each end
Sequence (P03069 228-281): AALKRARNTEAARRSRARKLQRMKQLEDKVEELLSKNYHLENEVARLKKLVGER
Quantity Kind: pKd
Numbers only, as −log10 of the molar value.

Task item: // pKd lookup, key: AP-1 (FP) (dsDNA) DNA 1: AGCTTATGAGTCATTTTAT DNA 2: AATAAAATGACTCATAAGC
Reply: 7.11
